# Tested on: PfSIP2 AP2 domain 1 (GST-tagged)
# measurement_notes: gcPBM binding intensity (ln(normalized median fluorescence intensity)); higher = stronger DNA binding
Whole data set: some 25,000 sequences, median “ln(normalized median fluorescence intensity)” near 7.1, cut for the highest 2% near 10. Shown is part of a subset that was picked to be rich in the highest values.
observation_type: gcPBM binding intensity (ln)
Keep the answer to the number alone.

sequence_string	gcPBM binding intensity (ln)
ATATCATCTTCTCTATCATTTTTTTTTTTTTTTTTT [CACACA_negctrl_site1220]	7.69
TACGTAATAATATGCACACAAATAAACTTTATAAAT [CACACA_site3501]	8.22
GATGTTTCTATTTTAGTGCATTTTAAATAAATAAAT	9.4

Request the reported gcPBM binding intensity (ln) associated with TTAACGCTTATTTTTTGTACTTATTTTATTTTAAAT [XGTACX_site3977]
7.22

Given the entry TTTTCTAAATAAATAGTGCATTTATTATATATACAT [GTGCAC_site9766] , report its measured gcPBM binding intensity (ln).
9.15

Entry TATCTTCATATATGGTGTACAGATTTTTTTTTTTTT [XGTACX_site5545] has what gcPBM binding intensity (ln)?
7.26

// query gcPBM binding intensity (ln) value for entry GTATATGAATAATATTTTATGGTAATTTTTTTTTTT [XGTACX_negctrl_site512]
6.91

gcPBM binding intensity (ln) for AAGAACAAATATGAGGTGCAACACAATATATTATTA [GTGCAC_site9965] ?
10.5

Fill in: gcPBM binding intensity (ln) of AGAATATATATAATAGTGCAATGTACAATGAACAAA [GTGCAC_site9577] is ___
8.01

Which value of gcPBM binding intensity (ln) has been reported for ACAAAGTAAAATAATGCATGTAGGTATACATAATTA [TGCATGCA_site607] in the records?
6.64

Would you kindly share the measured gcPBM binding intensity (ln) for CATACATACAGATATACACACATATATAATAATATA [CACACA_site5477] ?
7.14

Consider the sequence shown here: ATAGGACCTATGTGCCCATGGGTACATTAAAAAAAA [CACACA_negctrl_site1465] What is its recorded gcPBM binding intensity (ln)?
6.83

Value lookup for gcPBM binding intensity (ln); key = AAAAAAAAAAGAAACACACACATTTGTCTATAATAT [CACACA_site7063]
6.8

Entry TTTTTTAAAATATATATAATGAATTTTTTTTTTTTT [CACACA_negctrl_site1577] : reported gcPBM binding intensity (ln) = ?
7.05

State the recorded gcPBM binding intensity (ln) for this entry: ATATATATTATATGCACACTAATAAGACTATTTAAA [CACACA_site3554]
9.68

Entry AGGATAACATACAAAAGTACATAAAACTAAAAAAAC [XGTACX_site26] has what gcPBM binding intensity (ln)?
7.32

Consider the sequence shown here: ACATAATAAAAATGACGTACAATTTTTTTTTTTCAT [XGTACX_site8340] What is its recorded gcPBM binding intensity (ln)?
7.01

gcPBM binding intensity (ln) lookup needed for TTTAATATTATTATTTTACACACTTTTTTCCTTTTA [CACACA_site8780] , thanks.
6.64
